Consider the following compounds; for each one, report its ORYSAT herbicidal rating (rice tolerance).
Test system: Oryza sativa, (L.) Tebonnet
Experiment: Rice tolerance to post-transplant applications under flooded paddy conditions (Example 187), ORYSAT (Rice, Tebonnet)
Details: 0.0320 kg/ha, rated three to four weeks after treatment
Please give the numeric answer without any surrounding text.

Lab book: ORYSAT herbicidal rating (rice tolerance) of CC(C)OC(=O)C(C)(C)c1nsc2ccc(-n3c(=O)cc(C(F)(F)F)n(C)c3=O)cc12 noted as 5.0

Given item COC(=O)COc1cc(C)ccc1-c1nsc2cc(F)c(-n3c(=O)cc(C(F)(F)F)n(C)c3=O)cc12 , the value recorded as its ORYSAT herbicidal rating (rice tolerance) is 5.0

Briefly, ORYSAT herbicidal rating (rice tolerance) measured for CSCOCc1nsc2ccc(-n3c(=O)cc(C(F)(F)F)n(C)c3=O)cc12 : 5.0

* * *

System: Echinochloa oryzoides (Ard.) Fritsch.
Assay: Preemergence weed control under flooded paddy conditions, ECHORC (Watergrass (Calif.)); also: meaning of each grade not given here
Format: in vivo
Conditions: Rate 0.2500 kg/ha; preemergence, flooded paddy; rated three to four weeks after treatment
Measured Metric: herbicidal effect rating, ECHORC
Form field (numeric): enter value without unit.

Short answer for Cc1ccc(OC(C)C(=O)NS(C)(=O)=O)c(-c2nsc3ccc(-n4c(=O)cc(C(F)(F)F)n(C)c4=O)cc23)c1 (stereo not shown) [Example 572] : herbicidal effect rating, ECHORC was 6.0

Field herbicidal effect rating, ECHORC (entry Cn1c(C(F)(F)F)cc(=O)n(-c2ccc3snc(C[S+]([O-])c4ccccc4)c3c2)c1=O (stereo not shown) [Example 394] ) reads 6.0

The recorded herbicidal effect rating, ECHORC for entry Cn1c(C(F)(F)F)cc(=O)n(-c2ccc3snc(C(C#N)=Cc4cnc[nH]4)c3c2)c1=O [Example 595] equals 4.0

GET /value?item= C#CCC(c1nsc2ccc(-n3c(=O)cc(C(F)(F)F)n(C)c3=O)cc12)S(C)(=O)=O (stereo not shown) [Example 603] &field=herbicidal effect rating, ECHORC returns 8.0

Record Cn1c(C(F)(F)F)cc(=O)n(-c2ccc3snc(COC(=O)Cc4ccccc4)c3c2)c1=O [Example 369] , field herbicidal effect rating, ECHORC: 8.0

Form: compound = COc1ccccc1C=C(C#N)c1nsc2ccc(-n3c(=O)cc(C(F)(F)F)n(C)c3=O)cc12 [Example 599] ; herbicidal effect rating, ECHORC = 4.0

The reported value for Cc1nsc2cc(F)c(-n3c(=O)cc(C(F)(F)F)n(C)c3=O)cc12 [Example 366] in terms of herbicidal effect rating, ECHORC is 9.0

// recorded herbicidal effect rating, ECHORC for COC(C)c1nsc2ccc(-n3c(=O)cc(C(F)(F)F)n(C)c3=O)cc12 (stereo not shown) [Example 350] : 9.0

The recorded herbicidal effect rating, ECHORC for CCCCS(=O)(=O)OCc1nsc2ccc(-n3c(=O)cc(C(F)(F)F)n(C)c3=O)cc12 [Example 381] is 6.0

// field: herbicidal effect rating, ECHORC; key: Cn1c(C(F)(F)F)cc(=O)n(-c2ccc3snc(C(C)(C)C(=O)OCc4ccccc4)c3c2)c1=O [Example 396] ; value = 9.0

Field herbicidal effect rating, ECHORC (entry Cc1ccc(OC(C)(C)C(=O)NS(C)(=O)=O)c(-c2nsc3ccc(-n4c(=O)cc(C(F)(F)F)n(C)c4=O)cc23)c1 [Example 576] ) reads 9.0

For reference, reported herbicidal effect rating, ECHORC for Cn1c(C(F)(F)F)cc(=O)n(-c2ccc3snc(C(C#N)=Cc4ccncc4)c3c2)c1=O [Example 596] stands at 7.0

// CN(O)C(=O)c1nsc2ccc(-n3c(=O)cc(C(F)(F)F)n(C)c3=O)cc12 [Example 398] : herbicidal effect rating, ECHORC value = 8.0

Memo: CCC(=O)COC(=O)COc1ccc(C)cc1-c1nsc2ccc(-n3c(=O)cc(C(F)(F)F)n(C)c3=O)cc12 [Example 577] , reported herbicidal effect rating, ECHORC: 9.0

Form field herbicidal effect rating, ECHORC, entry CCCCS(=O)(=O)NC(=O)C(C)Oc1ccc(C)cc1-c1nsc2ccc(-n3c(=O)cc(C(F)(F)F)n(C)c3=O)cc12 (stereo not shown) [Example 575] : 9.0

// sample Cn1c(C(F)(F)F)cc(=O)n(-c2ccc3snc(COC(=O)Cc4ccc(Cl)cc4Cl)c3c2)c1=O [Example 401] , its herbicidal effect rating, ECHORC was 6.0

* * *

System: Monochoria vaginalis, Presl.
Test: Preemergence weed control under flooded paddy conditions, MOOVA (Monochoria); also: meaning of each grade not given here
Format: in vivo
Conditions: Rate 0.0320 kg/ha; preemergence, flooded paddy; rated 3-4 weeks after treatment
Measured Metric: herbicidal effect rating, MOOVA
Please give only the number in your answer, with no unit.

compound Cn1c(C(F)(F)F)cc(=O)n(-c2ccc3snc(-c4ccccc4OCC(N)=O)c3c2)c1=O , herbicidal effect rating, MOOVA observed: 8.0

herbicidal effect rating, MOOVA reading for Cc1ccc(OCC(=O)OCC2(c3ccccc3)CC2)c(-c2nsc3ccc(-n4c(=O)cc(C(F)(F)F)n(C)c4=O)cc23)c1 : 9.0

In plain terms, Cc1nsc2ccc(-n3c(=O)cc(C(F)(F)F)n(CCF)c3=O)cc12 has a documented herbicidal effect rating, MOOVA of 4.0

For record Cc1ccc(OCC(=O)c2ccccc2)c(-c2nsc3ccc(-n4c(=O)cc(C(F)(F)F)n(C)c4=O)cc23)c1 the listed herbicidal effect rating, MOOVA is 9.0

Entry Cc1ccc(OC(C)(C)C(=O)OCC(F)(F)F)c(-c2nsc3ccc(-n4c(=O)cc(C(F)(F)F)n(C)c4=O)cc23)c1 ; herbicidal effect rating, MOOVA = 6.0

Data point: C#CCOC(=O)C(C)(C)Oc1ccc(C)cc1-c1nsc2ccc(-n3c(=O)cc(C(F)(F)F)n(C)c3=O)cc12 ; herbicidal effect rating, MOOVA = 9.0

Entry Cn1c(C(F)(F)F)cc(=O)n(-c2ccc3snc(/C=C/C(=O)c4ccccc4)c3c2)c1=O , herbicidal effect rating, MOOVA reported as 9.0

The compound identified as Cc1ccc(OCC(=O)OCC2CCOC2)c(-c2nsc3ccc(-n4c(=O)cc(C(F)(F)F)n(C)c4=O)cc23)c1 (racemic) registered its herbicidal effect rating, MOOVA at 6.0

* * *

Answer each item with its documented CYPIR herbicidal effect rating.
Test system: Cyperus iria
Test: Preemergence weed control under flooded paddy conditions, CYPIR (Rice Flatsedge)
Format: in vivo
Conditions: Rate 0.0620 kg/ha; preemergence, flooded paddy; rated three to four weeks after treatment
When you answer, write just the number.

For record CNC.Cn1c(C(F)(F)F)cc(=O)n(-c2ccc3snc(COCC(=O)NS(C)(=O)=O)c3c2)c1=O the listed CYPIR herbicidal effect rating is 0.0

Lab note: measured CYPIR herbicidal effect rating of Cn1c(C(F)(F)F)cc(=O)n(-c2ccc3snc(C(Br)C#N)c3c2)c1=O (stereo not drawn) was 5.0

CYPIR herbicidal effect rating in this record for CC(=O)/C=C/c1nsc2ccc(-n3c(=O)cc(C(F)(F)F)n(C)c3=O)cc12 : 9.0

* * *

Tested on: Oryza sativa, (L.) Tebonnet
Assay: Rice tolerance to post-transplant applications under flooded paddy conditions (Example 187), ORYSAT (Rice, Tebonnet)
Settings: 0.1250 kg/ha, rated three to four weeks after treatment
Measured Metric: herbicidal effect rating, ORYSAT (rice tolerance)
Reply with the value as a number alone.

herbicidal effect rating, ORYSAT (rice tolerance) for COC(=O)C(C)Oc1cc(C)c(C)cc1-c1nsc2ccc(-n3c(=O)cc(C(F)(F)F)n(C)c3=O)cc12 (stereo not drawn) is 7.0

Memo: COCCOC(=O)COc1ccc(C)cc1-c1nsc2ccc(-n3c(=O)cc(C(F)(F)F)n(C)c3=O)cc12 , reported herbicidal effect rating, ORYSAT (rice tolerance): 3.0

Looking up CCCCOCc1nsc2ccc(-n3c(=O)cc(C(F)(F)F)n(C)c3=O)cc12 , I see its herbicidal effect rating, ORYSAT (rice tolerance) listed as 7.0

Form: molecule = CC(C)=CCOC(=O)COc1ccc(C)cc1-c1nsc2ccc(-n3c(=O)cc(C(F)(F)F)n(C)c3=O)cc12 ; herbicidal effect rating, ORYSAT (rice tolerance) = 3.0

Short answer for Cc1ccc(OCC(=O)OC(C)(C)C)c(-c2nsc3ccc(-n4c(=O)cc(C(F)(F)F)n(C)c4=O)cc23)c1 : herbicidal effect rating, ORYSAT (rice tolerance) was 1.5

In plain terms, COc1noc2ccc(-n3c(=O)cc(C(F)(F)F)n(C)c3=O)cc12 has a documented herbicidal effect rating, ORYSAT (rice tolerance) of 0.0

Memo: Cn1c(C(F)(F)F)cc(=O)n(-c2ccc3onc(-c4ccccc4)c3c2)c1=O , reported herbicidal effect rating, ORYSAT (rice tolerance): 7.0

herbicidal effect rating, ORYSAT (rice tolerance) in this record for Cn1c(C(F)(F)F)cc(=O)n(-c2ccc3snc(COCCCl)c3c2)c1=O : 8.0

Note to self: herbicidal effect rating, ORYSAT (rice tolerance) recorded for Cc1noc2cc(F)c(-n3c(=O)cc(C(F)(F)F)n(C)c3=O)cc12 was 8.0

Just so you know, measured herbicidal effect rating, ORYSAT (rice tolerance) for Cn1c(C(F)(F)F)cc(=O)n(-c2ccc3snc(CP(=O)(O)O)c3c2)c1=O came out at 6.0

Measured herbicidal effect rating, ORYSAT (rice tolerance), CCOCCOCc1nsc2ccc(-n3c(=O)cc(C(F)(F)F)n(C)c3=O)cc12 : 9.0

Record Cn1c(C(F)(F)F)cc(=O)n(-c2ccc3snc(-c4ccccc4)c3c2)c1=O . Reported herbicidal effect rating, ORYSAT (rice tolerance): 7.0
